Literature-derived IC50 for Type-1 angiotensin II receptor (Homo sapiens) follows.
Target: Type-1 angiotensin II receptor (Homo sapiens)
Sequence (P30556 whole entry): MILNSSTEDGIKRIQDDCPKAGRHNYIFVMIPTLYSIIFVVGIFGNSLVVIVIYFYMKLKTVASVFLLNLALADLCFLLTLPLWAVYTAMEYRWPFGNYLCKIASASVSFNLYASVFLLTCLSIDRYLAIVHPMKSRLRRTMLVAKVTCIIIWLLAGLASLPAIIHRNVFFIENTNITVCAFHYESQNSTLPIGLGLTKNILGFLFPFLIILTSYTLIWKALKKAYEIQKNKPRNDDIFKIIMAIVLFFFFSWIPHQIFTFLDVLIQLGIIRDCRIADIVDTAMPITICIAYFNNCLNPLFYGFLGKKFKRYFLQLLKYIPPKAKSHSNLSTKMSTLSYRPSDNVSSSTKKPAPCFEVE
readout.name: IC50 (nM)

These recorded examples may help you get a feel for the data.
Cc1nc2ccc(NC(=O)NC(C)C)cc2c(=O)n1Cc1ccc(-c2ccccc2S(=O)(=O)NC(=O)OCCC(C)C)cc1F : 15
CCCCOC(=O)NS(=O)(=O)c1ccc(CCC)cc1-c1ccc(Cn2c(CC)nc3c(C)cc(C)nc32)cc1 : 1.5
CCCCc1ncc(/C=C2/C(=O)NC(=O)N2CCCC)n1Cc1ccc(C(=O)OC)cc1 : 3.5
CCCc1nc2c(C)cc(NC(=O)Cc3ccccc3)cc2n1Cc1ccc(-c2ccccc2C(=O)O)cc1 : 1.2
CCCc1nc2c(C)cc(C(=O)NC(C)C)cc2n1Cc1ccc(-c2ccccc2C(=O)Nc2nnn[nH]2)cc1 : 161

I. COc1ccc2c(c1OCc1ccccc1)C[C@@H](C(=O)O)N(C(=O)C(c1ccccc1)c1ccccc1)C2
II. CCCCc1ncc(/C=C2/C(=O)N(C)C(=O)N2Cc2csc(C)n2)n1Cc1ccc(C(=O)OC)cc1
Query: Between I and II , which one has the lower reported IC50 value? Write the label of whichever entry you select.
Response: II

1. CCCCN(Cc1ccccc1)C(=O)c1ccc(COC(=O)c2c(CC)nc(CCC)n2Cc2ccc(-c3ccccc3-c3nn[nH]n3)cc2)cc1
2. CCCCCCCOC(=O)NS(=O)(=O)c1ccccc1-c1ccc(Cn2c(CCC)nc(CC)c2C(=O)OCc2ccccc2OC)c(F)c1
Query: Problem: Given the entries 1 and 2 , determine which has the lower reported IC50. Refer to your chosen entry by its label in the reply.
Response: 2

1. CCCc1nc(CC)c(C(=O)O)n1Cc1ccc(-c2ccccc2-c2nnn[nH]2)cc1
2. CCCc1nc2c(C)cc(C(=O)Nc3ccccc3)cc2n1Cc1ccc(-c2ccccc2C(=O)Nc2nnn[nH]2)cc1
Query: Would you let me know which has the greater IC50 value, 1 or 2 ? Label of pick, please.
Response: 2
(2: 73.7 nM, 1: 6 nM)

P. CCCc1nc(CN2CCN(c3ccccc3OC)CC2)c(C(=O)O)n1Cc1ccc(-c2ccccc2-c2nnn[nH]2)cc1
Q. CCc1nc2ccn(CC(=O)N(C)C)c(=O)c2n1[C@H]1CCc2cc(-c3ccccc3-c3nnn[nH]3)ccc21
Query: Of P and Q , which one carries the higher reported IC50? Selection: enter the item's label.
Response: Q

---

pIC50: −log10 of the molar value.
Collected pIC50 for Type-1 angiotensin II receptor (Homo sapiens, UniProt P30556) across several studies; compounds listed below.
readout.name: pIC50

Examples from the recorded data:
CCc1nc2ccn(Cc3ccccc3C)c(=O)c2n1[C@H]1CCc2cc(-c3ccccc3-c3nnn[nH]3)ccc21 : 8.29
Cc1cc(C)c2nc(C(C)C)n([C@H]3CCc4cc(-c5ccccc5-c5nnn[nH]5)ccc43)c2n1 : 7.99

I. CCCC(=O)Nc1cc(C)c2nc(CCC)n(Cc3ccc(-c4ccccc4C(=O)O)cc3)c2c1
II. CCCCN(Cc1ccccc1)Cc1nc(CCC)n(Cc2ccc(-c3ccccc3-c3nnn[nH]3)cc2)c1C(=O)O
Query: Param metric = pIC50; output whichever of I , II has the minimum value. Respond with the label that goes with your answer.
Response: II

---

Listed below are molecules with IC50 for Type-1 angiotensin II receptor (Homo sapiens), each taken from published literature.
readout.name: IC50 (nM)

Below are worked cases with known answers.
CCc1nc2ccn(Cc3ccccc3C#N)c(=O)c2n1[C@H]1CCc2cc(-c3ccccc3-c3nnn[nH]3)ccc21 : 13.5
CCc1nc2ccc(NC(=O)N(C)C(C)C)cc2c(=O)n1Cc1ccc(-c2ccccc2S(=O)(=O)NC(=O)OCCC(C)C)cc1F : 10

a. CCc1nc2c(C)cn(Cc3ccccc3C)c(=O)c2n1[C@H]1CCc2cc(-c3ccccc3-c3nnn[nH]3)ccc21
b. CCCc1nc(CN2CCN(c3ccccc3)C[C@H]2Cc2ccccc2)c(C(=O)O)n1Cc1ccc(-c2ccccc2-c2nn[nH]n2)cc1
c. CCCc1nc2c(C)cc(C(=O)Nc3ccc(C)cc3)cc2n1Cc1ccc(-c2ccccc2C(=O)O)cc1
d. CCCc1nc2c(C)cc(NC(=O)CCc3ccccc3)cc2n1Cc1ccc(-c2ccccc2C(=O)O)cc1
Query: Ordering: ascending IC50. Give me the labels in the order the question wants.
Response: d, a, b, c
(d: 0.1 nM, a: 6.8 nM, b: 10 nM, c: 39 nM)

---

Molecular target: Type-1 angiotensin II receptor (Homo sapiens, UniProt P30556)
Sequence (P30556 whole entry): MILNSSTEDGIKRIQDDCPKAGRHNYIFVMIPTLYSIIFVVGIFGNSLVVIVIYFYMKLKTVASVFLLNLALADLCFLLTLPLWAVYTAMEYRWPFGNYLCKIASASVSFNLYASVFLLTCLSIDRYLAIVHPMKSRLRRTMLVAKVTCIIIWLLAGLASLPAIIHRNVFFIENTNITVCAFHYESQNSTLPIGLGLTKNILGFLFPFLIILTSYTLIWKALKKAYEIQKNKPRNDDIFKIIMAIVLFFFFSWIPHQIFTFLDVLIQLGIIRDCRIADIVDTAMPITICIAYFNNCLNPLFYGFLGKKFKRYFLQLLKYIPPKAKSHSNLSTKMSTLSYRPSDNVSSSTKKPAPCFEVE
Ok so here's the combined literature set: IC50 for Type-1 angiotensin II receptor (Homo sapiens, UniProt P30556).
readout.name: IC50 (nM)

Consider the reported IC50 for these compounds:
CCc1nc2ccn(Cc3ccccc3OC(F)(F)F)c(=O)c2n1[C@H]1CCc2cc(-c3ccccc3-c3nnn[nH]3)ccc21 : 29.3
CCCc1nc2c(C)cc(C(=O)NCCc3ccccc3F)cc2n1Cc1ccc(-c2ccccc2S(=O)(=O)Nc2onc(C)c2C)cc1 : 160
CCCc1nc(CC)c(C(=O)OCc2ccccc2C(=O)c2ccccc2)n1Cc1ccc(-c2ccccc2-c2nnn[nH]2)cc1 : 2
CCCc1nc2c(C)cc(NC(=O)OC)cc2n1Cc1ccc(-c2ccccc2C(=O)O)cc1 : 0.7

A. CCCOC(=O)NS(=O)(=O)c1ccccc1-c1ccc(Cn2c(CCC)nc(CC)c2C(=O)OCc2ccccc2-c2cncnc2)c(F)c1
B. CCc1nc2ccn(Cc3ccccc3C(F)(F)F)c(=O)c2n1[C@H]1CCc2cc(-c3ccccc3-c3nnn[nH]3)ccc21
C. CCCc1nc(CC)c(C(=O)OCCCOc2ccccc2)n1Cc1ccc(-c2ccccc2S(=O)(=O)NC(=O)OCCC(C)C)cc1F
D. CCCc1nc(CC)c(C(=O)OCCN2C(=O)c3ccccc3C2=O)n1Cc1ccc(-c2ccccc2S(=O)(=O)NC(=O)OCCC(C)C)cc1F
Query: Order the items by recorded IC50; the first position goes to the largest value. Arrange the labels as the request states and list them.
Response: B, A, D, C

I. CCc1nc2ccn(Cc3c(C)noc3C)c(=O)c2n1[C@H]1CCc2cc(-c3ccccc3-c3nnn[nH]3)ccc21
II. O=C(O)/C=C/c1ccc(O)c(O)c1
III. CCc1cc(C)c2nc(CC)n([C@H]3CCc4cc(-c5ccccc5-c5nnn[nH]5)ccc43)c2n1
IV. CCCCN(CCCC)C(=O)CCCOC(=O)c1c(CC)nc(CCC)n1Cc1ccc(-c2ccccc2-c2nnn[nH]2)cc1
Query: Order field: IC50 | Direction: descending (largest first) Present the labels in the sequence the task asks for.
Response: II, I, IV, III
(II: 125 nM, I: 63.4 nM, IV: 30 nM, III: 6.8 nM)

a. CCc1ccc(C(=O)NS(=O)(=O)c2ccccc2-c2ccc(Cn3c(CC)nc4ccc(NC(=O)NC(C)C)cc4c3=O)c(F)c2)c(F)c1
b. CCCc1nc2c(C)cc(C(=O)NCCCN3CCOCC3)cc2n1Cc1ccc(-c2ccccc2C(=O)O)cc1
Query: Lab log: flag the item ( a or b ) with the smaller IC50 figure. Pick one; state its label.
Response: a

---

Target sequence: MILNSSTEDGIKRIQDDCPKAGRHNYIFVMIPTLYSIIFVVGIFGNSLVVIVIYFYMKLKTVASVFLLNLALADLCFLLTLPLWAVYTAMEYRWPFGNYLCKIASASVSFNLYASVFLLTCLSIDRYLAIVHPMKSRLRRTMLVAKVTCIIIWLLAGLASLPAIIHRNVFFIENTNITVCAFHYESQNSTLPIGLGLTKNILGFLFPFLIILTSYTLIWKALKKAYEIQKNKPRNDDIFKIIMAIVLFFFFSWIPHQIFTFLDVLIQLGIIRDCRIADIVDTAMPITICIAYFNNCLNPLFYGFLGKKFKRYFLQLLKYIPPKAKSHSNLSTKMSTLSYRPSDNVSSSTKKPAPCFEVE
pIC50: −log10 of the molar value.
Please find below pIC50 measurements for the protein given by its sequence, combined from several publications.
readout.name: pIC50

I. CCCc1nc(CC)c(C(=O)OCCC(=O)Nc2ccccc2)n1Cc1ccc(-c2ccccc2S(=O)(=O)NC(=O)OCCC(C)C)cc1F
II. CCCc1nc2c(C)cc(C(=O)NCc3cccc(OC)c3)cc2n1Cc1ccc(-c2ccccc2S(=O)(=O)Nc2onc(C)c2C)cc1
III. CCCc1nc(CC)c(C(=O)OCc2ccccc2C(=O)c2ccccc2)n1Cc1ccc(-c2ccccc2S(=O)(=O)NC(=O)OCC(C)C)cc1F
IV. Cc1cc(C)c2nc(C3CC3)n([C@H]3CCc4cc(-c5ccccc5-c5nnn[nH]5)ccc43)c2n1
Query: Would you mind ranking these compounds by ascending pIC50? Use the labels to give the requested order.
Response: II, IV, III, I
(II: 7.30, IV: 8.09, III: 9.30, I: 10.00)
